Assay: log P by HPLC on reversed-phase column (EEC Directive 79/831 Annex V.A8)
Assay type: physicochemical
measurement-type: logP

I am curious: what logP value has been reported for CC(C)CC(C)C1CCCC1NC(=O)c1c(C(F)F)nn(C)c1F (single isomer, unassigned) [Example 316] ? 4.19 isomer A

Repeat with Cn1nc(C(F)F)c(C(=O)N(CC#Cc2ccco2)C2CC2)c1F [Example 279] 2.70

Repeat with CC(CSc1ccc(Cl)cc1Cl)NC(=O)c1c(C(F)F)nn(C)c1F (centres unmarked) [Example 191] 3.76

Repeat with CC(COc1cc(Cl)ccc1Cl)NC(=O)c1c(C(F)F)nn(C)c1F (centres unmarked) [Example 173] 3.46

Repeat with CC(CCc1ncc(C(F)(F)F)cc1Cl)N(C)C(=O)c1c(C(F)F)nn(C)c1Cl (centres unmarked) [Example 88] 3.45

Repeat with CC(CC1CCCCC1NC(=O)c1c(C(F)F)nn(C)c1Cl)C1CC1 (centres unmarked) [Example 328] 4.28

Repeat with CN(CCCc1ccccc1)C(=O)c1c(C(F)F)nn(C)c1Cl [Example 5] 2.82

Repeat with CN(c1ccc(Oc2ccccc2)cc1)C(CNC(=O)c1c(C(F)F)nn(C)c1F)C(F)(F)F (centres unmarked) [Example 33] 4.16
